# System: HIV-1
# EXPERIMENT NOTES: C8166 HIV-1 Luciferase Assay (EC50)
# Format: cell-based
# TEST PARAMETERS: Human immunodeficiency virus 1, C8166, 72 h
pEC50: −log10 of the molar value.
# pEC50 per record follows
READOUT LABEL: pEC50

| MOLECULE | READOUT LABEL | RECORDED MEASUREMENT |
| --- | --- | --- |
| CC[C@H]1C[C@@H](n2c(=O)nc(-c3cnn(C)c3)c3oc4cc(OC)c(-c5cnn(C)c5)cc4c32)CCO1 [Compound 1055] | pEC50 | 8.44 |
| CNc1ccc(-c2nc(=O)n(CCC3CCCO3)c3c2oc2c(F)cc(-c4cnco4)cc23)cn1 (stereo not shown) [Compound 1029] | pEC50 | 7.72 |
| CC[C@H]1C[C@@H](n2c(=O)nc(-c3ccc(NC)nc3)c3oc4cnc(-c5cnn(C)c5)cc4c32)CCO1 [Compound 1077] | pEC50 | 8.22 |
| CC[C@H]1C[C@@H](n2c(=O)nc(-c3cnn(C)c3)c3oc4ccc(-c5cn(C)cn5)cc4c32)CCO1 [Compound 1091] | pEC50 | 7.81 |
| CC[C@H]1C[C@@H](n2c(=O)nc(-c3ccccn3)c3oc4ccc(-c5cn(C)cn5)nc4c32)CCO1 [Compound 1102] | pEC50 | 7.24 |
| CC[C@H]1C[C@@H](n2c(=O)nc(-c3cnn(C)c3)c3oc4nc(C)c(-c5cnco5)cc4c32)CCO1 [Compound 1080] | pEC50 | 6.92 |
| CCC[C@H]1C[C@@H](n2c(=O)nc(-c3cnn(C)c3)c3oc4cc(C#N)c(-c5cnn(C)c5)nc4c32)CCO1 [Compound 1018] | pEC50 | 7.66 |

The measurements presented in this section are drawn from patent US9399645B2.
